Reported IC50 chromogenic by item:
- TARGET OF ASSAY: T1, rat PAI-1 (rat, UniProt P20961 24-402)
- T1 sequence: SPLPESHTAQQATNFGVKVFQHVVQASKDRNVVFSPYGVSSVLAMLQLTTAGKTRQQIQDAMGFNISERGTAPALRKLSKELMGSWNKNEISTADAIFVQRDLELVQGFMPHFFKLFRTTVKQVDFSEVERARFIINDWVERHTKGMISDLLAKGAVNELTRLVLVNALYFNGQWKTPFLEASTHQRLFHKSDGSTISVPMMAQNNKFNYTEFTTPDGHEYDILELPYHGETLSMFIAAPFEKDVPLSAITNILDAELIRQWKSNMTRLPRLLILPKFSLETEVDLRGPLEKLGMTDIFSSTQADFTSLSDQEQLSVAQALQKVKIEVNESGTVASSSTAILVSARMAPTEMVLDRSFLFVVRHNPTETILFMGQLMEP
- PROTOCOL DESCRIPTION: cell-based or functional assay
PROPERTY MEASURED: IC50 chromogenic (nM)

1. Antibody 05, scFv (scFv, V domains shown) VH: QVQLQQSGAEVKKPGSSVKVSCKASGGTFSSYAISWVRQAPGQGLEWMGGIIPTFSTANYAQKFRGRVTITADESTSTAYMELSGLRSEDTAVYYCAREKRQWLEGHFDYWGRGTPVTVSS VL: DIQMTQSPSFLSASIGDRVTITCRASEGIYHQLAWYQQKPGKAPKLLIYRASSLASGAPSRFSGSGSGTDFTLTISSLQPDDFATYYCQQYSNYPLTFGGGTKLEIK    860
2. Antibody 27, scFv (scFv, V domains shown) VH: QVQLQQSGAEVKKPGSSVKVSCKASGGAFSSYAISWVRQAPGQGLEWMGGIIPTFGTANYAQKFQGRVTITADESTSTAYMELSGLRSEDTAVYYCAREKRQWLEGHFDYWGRGTPVTVSS VL: DIQMTQSPSFLSASIGDRVTITCRASEGIYHNLAWYQQKPGKAPKLLIYRASSLASGAPSRFSGSGSGTDFTLTISSLQPDDFATYYCQQYSNYPLTFGGGTKLEIK    49.8
3. Antibody 06, scFv (scFv, V domains shown) VH: QVQLQQSGAEVKKPGSSVKVSCKASGGTFSSYAISWVRQAPGQGLEWMGGIIPTFGTANYAQKFQGRVTITADESTSTAYMELSGLRSEDTAVYYCAREKRQWLEGHFDYWGRGTPVTVSS VL: DIQMTQSPSFLSASIGDRVTITCRASEGIYHELAWYQQKPGKAPKLLIYRASSLASGAPSRFSGSGSGTDFTLTISSLQPDDFATYYCQQYSNYPLTFGRGTKLEIK    37.1
